Test system: HIF
assayDetails: luciferase cell assay based on the HIF response elements (HRE), HeLa 9XHRE-LUC
Set-up: species or system human
conditionContext: Homo sapiens, HeLa, 6 h, read-out: IC50 from dose response curve (Figure 2 B)
observationType: pIC50
Scale for pIC50: -log10 of concentration given in mol/L; no unit attached.

Item Cc1ccc(C(=O)COC(=O)c2cccc(NC(=O)c3ccc([N+](=O)[O-])cc3[N+](=O)[O-])c2)cc1 [FM19G11] has what recorded pIC50?
7.10

###

Kindly state pIC50 for each of the entries shown.
Test system: HIF
assayDetails: luciferase cell assay based on the HIF response elements (HRE), HeLa 9XHRE-LUC
Parameters: species or system human
conditionContext: Homo sapiens; cell assay based on the HIF response elements (Example 1), HeLa 9XHRE-LUC; read-out: IC50 HRE
Scale for pIC50: -log10 of concentration given in mol/L; no unit attached.

Item O=C(O)c1cccc(NC(=O)c2ccccc2[N+](=O)[O-])c1 [Compound 24, 3-(2-nitrobenzamido)benzoic acid] has what recorded pIC50?
5.85

Continue with Cc1ccc(C(=O)COC(=O)c2cccc(NC(=O)c3ccc([N+](=O)[O-])cc3)c2)cc1 [Compound 22]
5.60

Continue with Cc1ccc(C(=O)COC(=O)c2cccc(NC(=O)c3ccccc3[N+](=O)[O-])c2)cc1 [Compound 25]
5.55

Continue with Cc1ccc(C(=O)COC(=O)c2cccc(NC(=O)c3ccc([N+](=O)[O-])cc3C(F)(F)F)c2)cc1 [Compound 10]
6.85

The values you see were collected from patent EP2292587A1.
